# key: entry, value: ratio to parent
B1: mouse CD160 (30I-154H) with C-terminal …, biotinylated [modified: biotin; biotin] [mouse] / full-length WT mouse HVEM-mCherry, on cells [mouse] (parent complex)
chain 1: IHVTSSASQKGGRLDLTCTLWHKKDEAEGLILFWCKDNPWNCSPETNLEQLRVKRDPETDGITEKSSQLVFTIEQATPSDSGTYQCCARSQKPEIYIHGHFLSVLVTGNHTEIRQRQRSHPDFSH
chain 2: QPSCRQEEFLVGDECCPMCNPGYHVKQVCSEHTGTVCAPCPPQTYTAHANGLSKCLPCGVCDPDMGLLTWQECSSWKDTVCRCIPGYFCENQDGSHCSTCLQHTTCPPGQRVEKRGTHDQDTVCADCLTGTFSLGGTQEECLPWTNCSAFQQEVRRGTNSTDTTCSSQVVYYVVSILLPLVIVGAGIAGFLICTRRHLHTSSVAKELEPFQEQQENTIRFPVTEVGFAETEEETASN

variants of: B1; assay: flow cytometry, cell–protein method; read off a plot
observable: ratio to parent

INSERT INTO assay_data (mutation_label, observable, readout_value) VALUES
  ('chain 2 H48D, chain 2 L52D', 'ratio to parent', '~0.76'),
  ('chain 2 G34D, chain 2 V36D', 'ratio to parent', '~0.01'),
  ('chain 2 G34A, chain 2 V36D', 'ratio to parent', '~0.01'),
  ('chain 2 H48R, chain 2 L52A', 'ratio to parent', '~1'),
  ('chain 2 G34R, chain 2 V36A', 'ratio to parent', '~0.01'),
  ('chain 2 G34D, chain 2 V36A', 'ratio to parent', '~0.01'),
  ('chain 2 G34D, chain 2 V36R', 'ratio to parent', '~0.01'),
  ('chain 2 H48D, chain 2 L52R', 'ratio to parent', '~0.66'),
  ('chain 2 H48A, chain 2 L52A', 'ratio to parent', '~1.4');

Provenance of the data: paper PMC8558838
